experiment: NCI Yeast Anticancer Drug Screen. Data for the cln2 rad14 strain (AID 165);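 also: 0% = growth equal to vehicle treated cultures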; settings: S. cerevisiae cln2 rad14 strain, at 50.0 µM, hits give high values
About 79,000 compounds went through this panel and 15% of them were active in at least one assay; those are over-represented in the sample as a whole.
value.type: growth inhibition (%)

compound	result.number
Cc1ccc(N2C(=O)CSC2=S)cc1F	8.15
CCC(=O)C1(CCCN(C)C)c2ccccc2Sc2ccccc21	-38.1
O=C(Nc1ccc([N+](=O)[O-])cc1Cl)c1ccc(C(=O)Nc2ccc([N+](=O)[O-])cc2Cl)cc1	31.3
CCOC(=O)c1cc2nc3ccccn3c(=O)c2cc1N	-36.3
FC(F)(F)c1cccc(NC(=S)N2CCOCC2)c1	-4.2
COc1cc([C@@H]2OCC3C(c4ccc5c(c4)OCO5)OCC32)cc(OC)c1OC (stereo partly specified)	28.6
C=CN1C(=O)NC(C)(CC(C)C)C1=O (stereo unspecified)	6.75
COC(=O)C1C(=O)CC2CCCCC21 (stereo unspecified)	20.6
O=C1c2ccccc2C(=O)c2c1cc1c(c2O)OCO1	-10.2
NC(=O)C(=CN1C(=O)/C(=C/c2ccccc2O)SC1=S)C(N)=O	28.4
CC1=NN(C(=O)CC(=O)Nc2cccc(Cl)c2)C(=O)C1N=Nc1ccc(C(=O)O)cc1 (stereo unspecified)	-25
COC(=O)c1ccccc1NC(OC)c1cccc([N+](=O)[O-])c1 (stereo unspecified)	17.7
CSc1ccc(NC(=O)Nc2ccc(Cl)cc2[N+](=O)[O-])cc1	-6.05
O=C(O)c1ccc(N=C=S)cc1O	-12.8
COC(=O)/C(=N/O)C(C(=O)OC)C(=O)C(=O)Nc1c(Cl)cc(C)cc1S(=O)(=O)O (stereo unspecified)	-14.1
CC1(C)C2CCC(=O)C1CC2 (stereo unspecified)	12.7
C=C(C#N)C1OCC2OC(C)(C)OC21 (stereo unspecified)	12.3
CCCCCCCCSc1nc2ccc(N=Cc3ccccc3O)cc2s1	53.6
O=NN(Cc1ccccc1)NC(=O)c1ccccc1	-8.4
COc1ccc(CCn2nccc2C)cc1	-17.9
CS(=O)(=O)c1nc2ncnc(N)c2[nH]1	-22.4
O=C1NC2=NN=C(c3ccc(Br)cc3)CN2NC12c1ccccc1-c1ccccc12	21.6
O=[N+]([O-])C(=C(N1CCOCC1)N1CCOCC1)/C(Cl)=C(\Cl)Br	-14.1
CCN(CC)CCCNc1nc2ccccc2c2c1ncn2CC(C)C	27.1
COC(=O)c1ccc(Cl)cc1	14.3
CC(C)S1=C2C(=O)CC(C)(C)CC2=Nc2ccccc21 (stereo unspecified)	-1.45
C/C(CC(=O)Nc1cccc([N+](=O)[O-])c1)=N\NC(=O)CC#N	12.1
O=C(CN1CCCCC1)c1ccc(CCc2ccc(C(=O)CN3CCCCC3)cc2)cc1	-61.1
CCCCc1nc(CCCC)nc(CCCC)n1	-2.45
O=C(COCC(=O)N/N=C/c1ccc(Cl)cc1Cl)N/N=C\c1cc(Cl)cc(Cl)c1	37.2
N#CCCN(CCC#N)c1ccc(/C=C2\N=C(c3cc([N+](=O)[O-])ccc3Cl)N(NC(=O)CC(=O)Nc3ccccc3Cl)C2=O)cc1	2.5
CC(C)C1=C(Cc2ccccc2)C(=O)O/C1=C\c1ccc(O)c(Cl)c1	21.4
Cc1ccccc1NC(=O)NN	10.8
CCCCCC(CCCC)OC(=O)Nc1ccccc1 (stereo unspecified)	-7
CC(N)C(O)C(C)C(=O)O (stereo unspecified)	44.5
COC(=O)c1ccc(SCCC(=O)CNc2nc(N)nc(N)c2[N+](=O)[O-])cc1	22.3
N#C/C(=C\c1ccccc1Cl)C(N)=S	8
COc1cc([C@@H]2c3cc4c(cc3[C@@H](Nc3ccccc3C(=O)c3ccccc3)[C@H]3COC(=O)[C@H]23)OCO4)cc(OC)c1OC	13.2
COC(=O)C1(c2ccccc2)Cc2ccccc2-c2ccccc21 (stereo unspecified)	-16.3
COc1ccc(C(=O)Nc2ccccc2CCC2CCCCN2C)cc1 (stereo unspecified)	22.4
Cc1c(O)c2cccc(-c3ccccc3)c2oc1=O	-6.3
CN(C)c1ccc(C(=C2C=CC(=[N+](C)C)C=C2)c2c(O)c(S(=O)(=O)[O-])cc3cc(S(=O)(=O)O)ccc23)cc1	15.1
CC(C)[C@@H]1C=C(c2ccccc2)c2ccccc2C1C(C#N)(C#N)C(C)C (stereo partly specified)	-8.4
O=c1[nH]n2c(=O)cc[nH]c2c1-c1nnns1	9.65
COc1ccc(CC(=O)c2c(OC)c3c(c4c2OC(C)(C)CC4)OC(C)(C)CC3)cc1OC	16.5
CNC(=O)c1cccc([N+](=O)[O-])c1	-31.2

---

Catalogue of growth inhibition readings, one per entry.
assay: NCI Yeast Anticancer Drug Screen. Data for the rad50 strain (AID 155);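 also: 0% = growth of vehicle-only cultures of the same strain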; settings: S. cerevisiae rad50 strain growth inhibition; at 50.0 µM; hits give high values
This is part of a sample that, as a whole, favours compounds with a hit. Of some 79,000 tested, about 15% had one in any assay.

molecule	growth inhibition [%]
c1ccc(C2=NC3CCCCC3S2)cc1 (configuration not stated)	2.95
COc1ccc(C(C)c2cc3c(cc2OC)OCO3)cc1 (configuration not stated)	9.25
Nc1nc2nc(N=Nc3ccccc3)[nH]c2c(=O)[nH]1	21.5
COC(=O)C1=C(C(=O)OC)SC(=C2C3=C(SC(C(=O)OC)=C(C(=O)OC)S3)c3ccccc32)S1	31.1
CCC(=O)C(CC)c1ccc(OC)cc1OC (configuration not stated)	-1.75
CCOC(=O)C1=C(C(=O)c2ccc(C)cc2)C(c2ccc([N+](=O)[O-])cc2)C(C(=O)c2ccc(C)cc2)=C(C(=O)OCC)N1	-27.3
COC(=O)Cc1oc(=O)n(-c2ccccc2)c(=O)c1C(=O)OC	6.75
COc1ccc(N=C2C(=Nc3ccc(OC)cc3)N(S(=O)(=O)c3ccccc3)C(=S)N2c2ccc(OC)cc2)cc1	-11.8
NC(=O)N/N=C(\c1ccccc1)C1CCCCc2ccccc21 (configuration not stated)	48.5
O=[N+]([O-])c1ccn(O)c(=Nc2ccccc2)c1	1.7
CC1CCC(C(C)C)C(OC(=O)N/N=C/N(C)C)C1 (configuration not stated)	1.65
C=C1CC2C(=O)N(c3ccccc3)C(=O)C2CC1n1[nH]c(=O)n(Cc2ccccc2)c1=O (configuration not stated)	3.8
CCN(CC)C1Oc2cc3c(cc2C(c2cccc(OC)c2OC)C1C)OCO3 (configuration not stated)	28.4
C=C(C#N)C1OCC2OC(C)(C)OC21 (configuration not stated)	3.7
CNc1ncnc2nc(C)c(C)nc12	-14.1
c1ccc(-c2cc3c(nn2)[nH]c2ccccc23)cc1	14.4
CCC(O)CN(C)C (configuration not stated)	8
O=C(/C=C/c1cccs1)c1ccc(Cl)s1	-18.3
NNC(=O)C(=O)N/N=C1/CCCC1C(=O)CCC(=O)Nc1ccc(Cl)cc1 (configuration not stated)	-4
CC1OC2=N[C@@H]1C(=O)N[C@@H](C(C)C)C1=N[C@H](C(=O)N[C@@H](C(C)C)C3=N[C@H](C(=O)N[C@@H](C(C)C)C4=N[C@H](C(=O)N[C@H]2C(C)C)C(C)O4)C(C)O3)C(C)O1 (some centres not stated)	6.9
COc1ccc([N+](=O)[O-])c2ncncc12	-14.4
CCCCCCCCC(=O)c1ccc(N=Nc2ccc(OCC)cc2)cc1	-6

---

assay: NCI Yeast Anticancer Drug Screen. Data for the mec2-1 strain (AID 157); conditions: S. cerevisiae mec2-1 strain, at 50.0 µM, hits give high values
The panel holds about 79,000 compounds, 15% with a hit somewhere; the sample as a whole holds those more often.

compound	growth inhibition, %
O=[N+]([O-])c1ccccc1N=N/C(Cc1ccccc1)=N\Nc1ccccc1	19.9
NNC(=O)C(=O)NN	-16.4
COC(=O)C1=C(C(=O)OC)C2CCCOC2=C(C)C1 (stereo not given)	12.1
CC1(c2ccccc2)CCCCC1OC(N)=O (stereo not given)	-21.9
CC(O)C([NH-])C(=O)O.CC([NH-])C(=O)O.[Cu+2] (stereo not given)	15.7
CCCCCC(=O)OCC[N+](C)(C)C	-29.9
CCN(CC)CCCNc1c2c(nc3ccc(Cl)cc13)CCCC2	-9.35
OC(CN1CCCCC1)c1ccncc1 (stereo not given)	-24.8
O=CNC1(CO)CCCCC1	-3.4
CC(C)CCCCCCCCCCCCC(=O)NCC(=O)NC1C(C)OC(Nc2ncnc3c2ncn3C)C(O)C1O (stereo not given)	-14.5
O=C(O)Cn1c(=O)n(CC(=O)O)c2ccccc21	-4.95
Nc1ccc(S(=O)(=O)O)c(N)c1	9.05
O=C1C(=O)C(CCc2ccccc2)C(=O)/C1=C\c1ccccc1 (stereo not given)	17.6
COc1ccc(Br)c(CN2CCc3ccccc32)c1OS(=O)(=O)c1ccc(C)cc1	-0.3
CC(=O)Oc1ccc(Nn2c3ccccc3c3ccccc32)c(C)c1	47.9
CCOC(=O)C1(C)Sc2ccccc2N=C1c1ccccc1 (stereo not given)	48.5
O=C(O)/C=C/C(=O)Nc1cc(Cl)cc2c1-c1c(Cl)cc(Cl)cc1C2O (stereo not given)	54
CCOC(=O)c1cc2ccccc2nc1N	3.45
CC(=O)Oc1c(OC(C)C)c(C)c(O[Si](C(C)C)(C(C)C)C(C)C)c2[nH]c3ccccc3c12	-5.05
CC(=O)[O][Ga]([Br])[O]C(C)=O	11.8
CCOC(CSc1cc(C)c2ccccc2n1)OCC	-0.05
OC(c1cc2ccccc2c2ccccc12)C1CCCCN1 (stereo not given)	16.9
O=C1C(Nc2ccccc2)=C(c2ccccc2)C(=O)N1c1ccccc1	-7.55
NC(=O)N/N=C(\CC1OC(=O)c2ccccc21)c1ccc([N+](=O)[O-])cc1 (stereo not given)	3.85
N#CCC(=O)c1ccc(N)cc1	-19.6
